STUDY_SYSTEM: human CB1R (Homo sapiens, UniProt P21554)
Construct: expressed in transfected cells
Sequence (P21554 whole entry): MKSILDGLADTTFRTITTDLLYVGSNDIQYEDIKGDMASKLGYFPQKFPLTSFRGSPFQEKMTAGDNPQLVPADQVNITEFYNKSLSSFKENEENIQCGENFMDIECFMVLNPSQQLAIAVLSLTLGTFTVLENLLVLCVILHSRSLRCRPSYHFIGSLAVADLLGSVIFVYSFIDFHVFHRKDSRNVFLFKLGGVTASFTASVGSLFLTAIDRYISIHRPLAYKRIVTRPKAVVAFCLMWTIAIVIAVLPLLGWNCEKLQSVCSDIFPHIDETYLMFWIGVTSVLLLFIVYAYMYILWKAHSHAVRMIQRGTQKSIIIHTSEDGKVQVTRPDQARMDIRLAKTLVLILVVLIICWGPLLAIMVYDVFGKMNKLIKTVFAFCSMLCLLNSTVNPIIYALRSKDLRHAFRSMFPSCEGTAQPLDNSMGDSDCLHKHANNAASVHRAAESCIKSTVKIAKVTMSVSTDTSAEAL
PROTOCOL_SUMMARY: Competition radioligand binding assay, [3H]-CP55940, human CB1R
Let's look at some compounds and their measured Ki.
Write down the numeric answer in nM and omit the unit.

# example entries with known answers
[[record]]
compound = "CCCCCn1cc(C(=O)NC23CC4CC(CC(C4)C2)C3)c(=O)c2ccccc21"
parameter = "Ki"
numeric_value = 49

[[record]]
compound = "COC(=O)[C@@H](NC(=O)c1cn(Cc2ccc(F)cc2)c2ccccc12)C(C)C"
parameter = "Ki"
numeric_value = 47.9


Value wanted: Ki (human CB1R (Homo sapiens, UniProt P21554)) of entry CC(C)C(NC(=O)c1cn(Cc2ccc(F)cc2)c2ccccc12)C(N)=O (stereo not drawn)
3.6

# credit: paper PMC10745346
